tested on: Candida albicans A-26; test: Therapeutic activity against Candida albicans A-26 infection in mice; format: in vivo; conditions: A26, sc
Numbered stars: 1 amine (or outer) side, 2 acyl side, 3 side chain; on linkers, the order of the positions; unused ones are H or OH. Bridge positions count the residues as written; N and C are the ends. Square brackets hold non-standard residues; d marks the D form. Peptide text beside a SMILES is read from it. * marks the point of attachment. Orn(4R-OH,5R-OH) = O=C([C@H](C[C@@H](O)[C@@H](O)N[*:3])N[*:1])[*:2]; hTyr(3S-OH,4S-OH) = N[C@H](C(=O)O)[C@H](O)[C@@H](O)c1ccc(O)cc1; Pro(3S-OH,4S-Me) = C[C@H]1CN[C@H](C(=O)O)[C@H]1O; X5 = O=C(c1cc(Cl)cc(N[*:1])c1Cl)[*:2]; Palmitoyl = CCCCCCCCCCCCCCCC(=O)*; Hyp = O=C(O)[C@@H]1C[C@@H](O)CN1; Lauroyl = CCCCCCCCCCCC(=O)*; 4Abz = Nc1ccc(C(=O)O)cc1; Octanoyl = CCCCCCCC(=O)*
Measure name: ED50

Compound: CCCCCCCCCCCCCCCC(=O)Nc1ccc(C(=O)N[C@H]2C[C@@H](O)[C@@H](O)NC(=O)[C@@H]3[C@@H](O)[C@@H](C)CN3C(=O)[C@H]([C@@H](C)O)NC(=O)[C@H]([C@H](O)[C@@H](O)c3ccc(O)cc3)NC(=O)[C@@H]3C[C@@H](O)CN3C(=O)[C@H]([C@@H](C)O)NC2=O)cc1 [Example 81] ({Palmitoyl-4Abz}-[Orn(4R-OH,5R-OH)]T[Hyp][hTyr(3S-OH,4S-OH)]T[Pro(3S-OH,4S-Me)]; lactam 1-C)
Measured result: 7 mg/kg

Could you report ED50 for every entry in the following list?
1. CCCCCCCC(=O)Nc1cc(Cl)cc(C(=O)N[C@H]2C[C@@H](O)[C@@H](O)NC(=O)[C@@H]3[C@@H](O)[C@@H](C)CN3C(=O)[C@H]([C@@H](C)O)NC(=O)[C@H]([C@H](O)[C@@H](O)c3ccc(O)cc3)NC(=O)[C@@H]3C[C@@H](O)CN3C(=O)[C@H]([C@@H](C)O)NC2=O)c1Cl [Example 88] (Octanoyl-[X5][Orn(4R-OH,5R-OH)]T[Hyp][hTyr(3S-OH,4S-OH)]T[Pro(3S-OH,4S-Me)]; lactam 2-C)
2. CCCCCCCCCCCC(=O)Nc1ccc(C(=O)NCC(=O)N[C@H]2C[C@@H](O)[C@@H](O)NC(=O)[C@@H]3[C@@H](O)[C@@H](C)CN3C(=O)[C@H]([C@@H](C)O)NC(=O)[C@H]([C@H](O)[C@@H](O)c3ccc(O)cc3)NC(=O)[C@@H]3C[C@@H](O)CN3C(=O)[C@H]([C@@H](C)O)NC2=O)cc1 [Example 74] ({Lauroyl-4Abz}-G[Orn(4R-OH,5R-OH)]T[Hyp][hTyr(3S-OH,4S-OH)]T[Pro(3S-OH,4S-Me)]; lactam 2-C)

Response:
1. > 40 mg/kg
2. > 40 mg/kg
